The binders listed here are annotated with their ELISA absorbance at 450 nm.
- measured.target: T1, Synthetic peptide HGVTSAPDTRPAPGSTAPP
- T1 construct: Unglycosylated; also called 346; MUC1 repeat
- T1 peptide: HGVTSAPDTRPAPGSTAPP
- protocol.details: ELISA on coated peptide, antibody 0.01 mg/ml, mean of 3
- Excerpt: Selected antibodies from Table 1 were further characterized for binding to synthetic MUC1 glycopeptides that were synthesized with the GalNac or GaNac-Gal carbohydrates on various serines and threonines along the MUC1 tandem repeat. If placed within the specific epitope recognized by an antibody, the antibody would not bind that particular glycopeptide.
The number alone won't do; follow it with the unit.

# binder, ELISA absorbance at 450 nm
records = [
    ("M3 (antibody, human IgG1, lambda, V domains shown, Human IgG) VH: QLQLQESGPGLVKPSETLSLTCTVSGGSISSSSYYWGWIRQPPGKGLEWIGSIYYSGSTHYNPSLKSRVTISVDTSKNQFSLKLRSVTAADTAVYYCARGVVEVRGNHYYYYYMDVWGKGTTVTVSS VL: QSVLTQPPSVSGAPGQRVTISCTGSSSNIGAGYDVHWYQQLPGTAPKLLIYGNSYRPSGVPDRFSGSKSGTSASLAITGLQAEDEADYYCQSYDSSLSGSGVFGGGTKLTVLG", "0.1 absorbance"),
]

Qu. Return reported ELISA absorbance at 450 nm. Input binder: M21 (antibody, human IgG1, kappa, V domains shown, Human IgG) VH: EVQLVESGGGLVQPGGSLRLSCAASGFTVSSNYMSWVRQAPGKGLEWVSVIYSGGSTYYADSVKGRFTISRDNSKNTLYLQMNSLRAEDTAVYYCARDQEHYFDGSGYYVDYWGQGTLVTVSS VL: DVVMTQSPLSLPVTLGQPASISCRSSQSLVYSDGNTYLNWFQQRPGQSPRRLIYQVSNRDSGVPDRFSGSGSGTDFTLKIGRVEAEDVGVYFCMQGTHWPWTFGQGTKVEIKR
Ans. 2.1 absorbance
